# system: TEC (human) (UniProt P42680)
# Sequence (P42680 whole entry, looked up): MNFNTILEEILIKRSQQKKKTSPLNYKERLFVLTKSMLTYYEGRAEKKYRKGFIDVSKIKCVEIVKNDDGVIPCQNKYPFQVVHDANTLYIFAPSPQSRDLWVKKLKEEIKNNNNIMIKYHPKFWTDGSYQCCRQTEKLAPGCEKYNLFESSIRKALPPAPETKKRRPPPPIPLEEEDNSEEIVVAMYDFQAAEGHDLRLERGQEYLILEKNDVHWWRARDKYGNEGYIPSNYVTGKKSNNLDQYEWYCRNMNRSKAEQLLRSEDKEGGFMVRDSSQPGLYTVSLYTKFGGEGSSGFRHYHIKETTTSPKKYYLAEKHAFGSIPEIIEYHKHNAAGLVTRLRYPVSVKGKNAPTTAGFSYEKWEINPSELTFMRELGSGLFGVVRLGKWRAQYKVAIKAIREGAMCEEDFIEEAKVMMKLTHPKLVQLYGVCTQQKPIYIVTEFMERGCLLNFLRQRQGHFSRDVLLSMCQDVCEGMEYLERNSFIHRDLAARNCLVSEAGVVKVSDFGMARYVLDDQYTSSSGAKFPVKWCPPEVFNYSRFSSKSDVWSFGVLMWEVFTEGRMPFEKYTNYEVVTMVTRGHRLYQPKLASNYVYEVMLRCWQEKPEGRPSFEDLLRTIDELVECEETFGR
# run description: KINOMEscan competition binding
# measurement context: compound 10.0 µM
Quick list: kinase still bound, per cent of control per entry.
reported property: kinase still bound, per cent of control (%)

>>> readout_value("COc1cc(C)c(Sc2cnc(NC(=O)c3ccc(CNC(C)C(C)C)cc3)s2)cc1C(=O)N1CCN(C(C)=O)CC1 (stereo not given)")
25
>>> readout_value("CCOc1cc(N2CCC(O)CC2)ccc1Nc1ncc2c(n1)N(C)c1ccccc1C(=O)N2C")
100
>>> readout_value("C=CC(=O)Nc1ccc(C(=O)c2sc(Nc3ccc(N4CCN(C)CC4)cc3OC)nc2N)cc1")
98
>>> readout_value("CC(=O)c1c(C)c2cnc(Nc3ccc(N4CCNCC4)cn3)nc2n(C2CCCC2)c1=O")
98
>>> readout_value("O=c1[nH]c2ccccc2n1C1CCN(Cc2ccc(-c3nc4cc5[nH]cnc5cc4nc3-c3ccccc3)cc2)CC1")
100
